Read-out: ABC Transporter (ABCC2), ABCC2 (gene 1244)
PROCEDURE_TEXT: LTEA_HepaRG_ABCC2: Life Technologies and Expression Analysis (LTEA) Assay for ABC Transporter (ABCC2) using HepaRG (AID 2283464)
CONDITION_DESCRIPTION: mRNA level, 48 h; actives raise or lower the signal
Activity calls are given as the source filed them. How the source made its calls: active means hit-call score of the fitted dose curve at least 0.9, where 1 is the maximum; inactive means score below 0.9.
PROPERTY_MEASURED: AC50

Solved cases (5 shown):
compound="CC(C)C(=O)OCC(C)(C)C(OC(=O)C(C)C)C(C)C (stereo not drawn)" recorded_value=inactive
compound=Clc1ccc(C(Cl)(Cl)Cl)cc1 recorded_value=inactive
compound=CCCN(CCC)N=O recorded_value=inactive
compound="CCC(C)c1cc([N+](=O)[O-])cc([N+](=O)[O-])c1O (stereo not drawn)" recorded_value="1.46 µM (active)"
compound=CCCCCCOC(=O)c1ccccc1C(=O)OCCCCCC recorded_value=inactive

Request the reported AC50 associated with Clc1ccc(Cl)cc1
inactive

Tell me the measured AC50 of Oc1ccc(Cl)cc1Cl , please.
inactive

What value of AC50 has been reported for the following compound? N#Cc1ccc(N(CC(N)=O)CC(F)(F)F)cc1C(F)(F)F
inactive

----------
Read-out: Cytochrome P450 3A7 (Homo sapiens) (UniProt P24462)
Sequence (P24462 whole entry, looked up): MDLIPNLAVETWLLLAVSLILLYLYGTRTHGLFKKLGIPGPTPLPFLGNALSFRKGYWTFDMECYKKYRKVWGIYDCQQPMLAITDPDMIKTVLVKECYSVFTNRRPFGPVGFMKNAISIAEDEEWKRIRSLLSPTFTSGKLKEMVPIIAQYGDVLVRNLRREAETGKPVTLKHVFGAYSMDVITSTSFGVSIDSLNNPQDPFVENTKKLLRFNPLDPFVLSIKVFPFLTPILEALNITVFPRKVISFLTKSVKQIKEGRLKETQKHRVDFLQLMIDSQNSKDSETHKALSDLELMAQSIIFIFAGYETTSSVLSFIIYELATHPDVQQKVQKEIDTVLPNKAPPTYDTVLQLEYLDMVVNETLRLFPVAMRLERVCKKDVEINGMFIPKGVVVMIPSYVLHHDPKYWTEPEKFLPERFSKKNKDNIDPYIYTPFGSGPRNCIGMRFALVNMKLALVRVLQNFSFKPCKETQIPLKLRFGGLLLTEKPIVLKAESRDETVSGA
PROCEDURE_TEXT: LTEA_HepaRG_CYP3A7: Life Technologies and Expression Analysis (LTEA) Assay for CYP3A7 using HepaRG (AID 2283492)
CONDITION_DESCRIPTION: mRNA level, 48 h; actives raise or lower the signal
Activity calls are given as the source filed them. Rule for the calls: active = hit-call score of the fitted dose curve at least 0.9, where 1 is the maximum; inactive = score below 0.9.
Choose the fitting class; nothing outside active, inactive is accepted.

Here are 6 compounds together with their reported answers.
compound="C1CC2OC2CC1C1CO1 (configuration not stated)" label_class=inactive
compound=Cc1ccccc1[N+](=O)[O-] label_class=inactive
compound=NS(=O)(=O)C(F)(F)C(F)(F)C(F)(F)C(F)(F)C(F)(F)C(F)(F)C(F)(F)C(F)(F)F label_class=active
compound=Cc1ccccc1CO[C@@H]1C[C@@]2(C(C)C)CC[C@]1(C)O2 label_class=inactive
compound=O=S(=O)(O)C(F)(F)C(F)(F)C(F)(F)C(F)(F)F label_class=inactive
compound=COS(=O)(=O)OC label_class=inactive

Could you please tell me the result logged for CCCCCCCCCC[N+](C)(C)CCCCCCCCCC in this assay?
inactive

Each compound tested received a call. Report the one for O=C(NC(=O)c1c(F)cccc1F)Nc1cc(Cl)c(OC(F)(F)C(F)F)c(Cl)c1 .
inactive

Would you mind telling me which call this test gave C[C@]12CCC(=O)C=C1CC[C@@H]1[C@@H]2CC[C@]2(C)C(=O)CC[C@@H]12 ?
inactive

----------
PROCEDURE_TEXT: ATG_GLI_CIS: Attagene CIS-FACTORIAL HepG2 Assay for human Zinc Finger Protein GLI1 (AID 2282945)
CONDITION_DESCRIPTION: HepG2, Attagene cis-factorial reporter mRNA, GLI element; actives raise or lower the signal
Active and inactive are the calls of the source. Rule for the calls: active = hit-call score of the fitted dose curve at least 0.9, where 1 is the maximum; inactive = score below 0.9.
PROPERTY_MEASURED: outcome

compound=O=C(O)C(F)(F)C(F)(F)C(F)(F)C(F)(F)C(F)(F)C(F)(F)C(F)(F)C(F)(F)C(F)(F)F recorded_value=inactive
compound=C=CC(N)=O recorded_value=inactive
compound=Nn1cnnc1 recorded_value=inactive
compound=CCC(C)(CC)c1cc(NC(=O)c2c(OC)cccc2OC)on1 recorded_value=inactive
compound=Cc1ccc(O)c(C)c1 recorded_value=inactive

Consider the compound Nc1ccc(-c2ccc(N)cc2)cc1 and give its measured outcome.
inactive

// outcome lookup, key: O=S(=O)(O)C(F)(F)C(F)(F)C(F)(F)C(F)(F)F
inactive

Fill in: outcome of CCC(C)c1cc([N+](=O)[O-])cc([N+](=O)[O-])c1O (stereo not drawn) is ___
inactive

Please give the measured outcome for this compound: Cc1cc(-c2ccc(N)c(C)c2)ccc1N
inactive

Item Sc1ccccc1 has what recorded outcome?
inactive

Entry O=NN(c1ccccc1)c1ccccc1 : reported outcome = ?
inactive

Any idea what outcome was measured for COc1ccc(O)c(C(C)(C)C)c1 ?
inactive

State the recorded outcome for this entry: O=S(=O)(O)C(F)(F)C(F)(F)C(F)(F)C(F)(F)C(F)(F)C(F)(F)F
inactive

----------
Read-out: Plasminogen activator inhibitor-1 (PAI1), SERPINE1 (gene 5054)
PROCEDURE_TEXT: BSK_hDFCGF_PAI1: BioMAP Diversity Plus: hDFCGF Assay for Plasminogen activator inhibitor-1 (PAI1) Biomarker Activity (AID 2283066)
CONDITION_DESCRIPTION: primary human foreskin fibroblasts; actives raise or lower the signal
Active and inactive are the calls of the source. How the source made its calls: active means hit-call score of the fitted dose curve at least 0.9, where 1 is the maximum; inactive means score below 0.9.
Log the outcome using a class from active, inactive

compound=c1cc2ccc3cccc4ccc(c1)c2c34 label_class=inactive
compound=CCCCCCCCCc1ccc(O)cc1 label_class=active
compound=Oc1ccc(Cl)cc1Cl label_class=inactive
compound=Cc1ccccc1[N+](=O)[O-] label_class=inactive
compound=CC(C)(c1ccccc1)c1ccc(O)cc1 label_class=active
compound=CN(C)CCO label_class=inactive

State the result this test recorded for Clc1ccc(C(Cl)(Cl)Cl)cc1 .
inactive

Status in this test for CCNc1nc(NC(C)C)nc(SC)n1 ?
inactive

Each compound tested received a call. Report the one for O=C(O)C(F)(F)C(F)(F)C(F)(F)C(F)(F)C(F)(F)F .
inactive

What classification did Clc1ccc(C(c2ccccc2Cl)C(Cl)(Cl)Cl)cc1 (configuration not stated) end up with in this test?
active

What is the recorded call for this compound in the test? Cc1ccc(O)c(C)c1
inactive

Call for entry CN(C)c1nc(=O)n(C2CCCCC2)c(=O)n1C :
inactive

Recorded call for Sc1ccccc1 ?
inactive

Assay result, entry O=C(O)C(F)(F)C(F)(F)C(F)(F)C(F)(F)C(F)(F)C(F)(F)C(F)(F)C(F)(F)F — outcome?
inactive

Please state the recorded outcome for this compound: CCCCCCCCOC(=O)c1ccccc1C(=O)OCCCCCCCC
inactive

Answer briefly: the call reported for O=C(N[C@H]1CN2CCC1CC2)c1cc2ccoc2cn1 in this assay.
inactive

Called result for CCCCCCCCCC[N+](C)(C)CCCCCCCCCC
active

----------
SYSTEM_UNDER_TEST: Retinoic acid receptor alpha (Homo sapiens) (UniProt P10276)
Sequence (P10276 whole entry, looked up): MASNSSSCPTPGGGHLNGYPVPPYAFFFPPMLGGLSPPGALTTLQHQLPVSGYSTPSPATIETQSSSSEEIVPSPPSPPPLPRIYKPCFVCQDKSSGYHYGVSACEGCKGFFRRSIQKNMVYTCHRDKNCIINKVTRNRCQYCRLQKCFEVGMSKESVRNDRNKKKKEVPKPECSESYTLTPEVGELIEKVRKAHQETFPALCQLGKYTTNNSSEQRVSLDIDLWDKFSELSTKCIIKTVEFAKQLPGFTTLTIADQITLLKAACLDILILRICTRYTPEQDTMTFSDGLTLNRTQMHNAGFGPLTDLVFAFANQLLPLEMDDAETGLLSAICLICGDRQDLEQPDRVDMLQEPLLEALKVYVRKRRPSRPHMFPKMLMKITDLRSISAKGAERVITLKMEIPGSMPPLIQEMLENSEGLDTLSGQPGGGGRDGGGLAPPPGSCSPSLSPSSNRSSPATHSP
PROCEDURE_TEXT: ATG_RARa_TRANS: Attagene TRANS-FACTORIAL HepG2 Assay for human Retinoic Acid Receptor alpha (RARa) (AID 2283005);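 on AC50: potency for increased reporter signal meaning RARa activation over DMSO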
Results filed as inconclusive are left out. The source made the active and inactive calls. Rule for the calls: active = hit-call score of the fitted dose curve at least 0.9, where 1 is the maximum; inconclusive = response in the unintended direction; inactive = score below 0.9.
PROPERTY_MEASURED: AC50

input_smiles=COc1ccc(O)c(C(C)(C)C)c1 property_measured=AC50 recorded_value=inactive
input_smiles=ClC1=C(Cl)[C@]2(Cl)[C@@H]3[C@@H](Cl)[C@H]4O[C@H]4[C@@H]3C1(Cl)C2(Cl)Cl property_measured=AC50 recorded_value=inactive
input_smiles=CCC(=O)O[C@H]1CC[C@H]2[C@@H]3CCC4=CC(=O)CC[C@]4(C)[C@H]3CC[C@]12C property_measured=AC50 recorded_value=inactive
input_smiles=Cc1ccccc1O property_measured=AC50 recorded_value=inactive

Can you look up the measured AC50 of ClC1=C(Cl)[C@]2(Cl)[C@@H]3[C@@H]4C[C@@H]([C@H]5O[C@@H]45)[C@@H]3[C@@]1(Cl)C2(Cl)Cl for me?
855 nM (active)

Return reported AC50; argument: C[C@]12CCC(=O)C=C1CC[C@@H]1[C@@H]2CC[C@]2(C)C(=O)CC[C@@H]12
inactive

May I ask what AC50 has been recorded for CCCCCCCCCc1ccc(O)cc1 ?
inactive

Reported AC50, molecule Cc1ccccc1CO[C@@H]1C[C@@]2(C(C)C)CC[C@]1(C)O2 : ____
inactive

Query: AC50; subject: OCC(O)CO
inactive

AC50 lookup needed for NS(=O)(=O)C(F)(F)C(F)(F)C(F)(F)C(F)(F)C(F)(F)C(F)(F)C(F)(F)C(F)(F)F , thanks.
inactive

Would you kindly share the measured AC50 for C=CC(N)=O ?
inactive

Quick check: AC50 of CC1=C2C[C@H]3[C@@H](CC=C4C[C@@H](O)CC[C@@]43C)[C@@H]2CC[C@]12O[C@@H]1C[C@H](C)CN[C@H]1[C@H]2C ?
inactive

Given the molecule Cc1cc(-c2ccc(N)c(C)c2)ccc1N , what is its reported AC50?
inactive

----------
PROCEDURE_TEXT: CCTE_Shafer_MEA_dev_spike_duration_mean: CCTE's Neural Network Formation Assay for Mean Spike Duration, Shafer Lab (AID 2284051);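 further: mean network spike duration pooled as area under curve over DIV 5 to 12 recordings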
The source made the active and inactive calls. How the source made its calls: active means hit-call score of the fitted dose curve at least 0.9, where 1 is the maximum; inactive means score below 0.9.
Hi there, use one of these labels in your reply, thanks! Yes (active), No (inactive)

Study these solved cases before continuing.
molecule=c1cc2ccc3cccc4ccc(c1)c2c34 label_class=No
molecule=CCC(C)(c1ccc(O)cc1)c1ccc(O)cc1 label_class=Yes
molecule=ClC1=C(Cl)[C@]2(Cl)[C@@H]3[C@@H](Cl)[C@H]4O[C@H]4[C@@H]3C1(Cl)C2(Cl)Cl label_class=Yes
molecule="Clc1ccc(C(c2ccccc2Cl)C(Cl)(Cl)Cl)cc1 (stereo not given)" label_class=Yes

We next turn to a different molecule, shown below.
Record request — test call for COc1ccc(O)c(C(C)(C)C)c1
No
